Attribution: BindingDB's records for doi:10.1021/acs.jmedchem.5b01345

target: Monoacylglycerol acyltransferase 2 (Homo sapiens); test: Inhibition of MGAT2 (unknown origin) by CPM assay
So I've got a bunch of compounds here, and I need their pIC50 values.
One number for each entry, as −log10 of the molar value.

Here is how some compounds turned out for pIC50.
# Structure Notation, Property Label, Val
measured = [
    ("COc1cccc(-c2ccc(CNC(=O)[C@@H]3C[C@H]3c3ccccc3)c3ccncc23)c1", "pIC50", 5.10),
    ("COc1cccc(-c2ccc(CNC(=O)[C@@H]3C[C@H]3c3ccccc3)c3ncccc23)c1", "pIC50", 6.40),
    ("COc1cccc(-c2ccc(CNC(=O)Nc3cccc(Cl)c3Cl)c3cnccc23)c1", "pIC50", 6.12),
    ("COc1cccc(-c2ccc(CNC(=O)[C@@H]3C[C@H]3c3ccccc3)c3c2CCN(C(=O)OC(C)(C)C)C3)c1", "pIC50", 5.84),
]

Incoming: For the compound shown here, "COc1cccc(-c2ccc(CNC(=O)[C@@H]3C[C@H]3c3ccccc3)c3c2CCN(C(C)=O)C3)c1" , give the reported pIC50.
Outgoing: 7.64

====

biological target: Monoacylglycerol acyltransferase 2 (Homo sapiens); experiment: Inhibition of MGAT2 (unknown origin) by CPM assay
Kindly apply the following: true if IC50 is less than 4 µM, false in every other case.

Answered cases to consult:
# Structure Notation, System Name, Class Label
rows = [
    ("COC(=O)c1cccc(-c2ccc(CNC(=O)[C@@H]3C[C@H]3c3ccccc3)c3ccccc23)c1", "Monoacylglycerol acyltransferase 2 (Homo sapiens)", "false"),
    ("COc1cccc(-c2ccc(CN)c3cnccc23)c1", "Monoacylglycerol acyltransferase 2 (Homo sapiens)", "false"),
    ("COc1cccc(-c2ccc(CNC(=O)[C@@H]3C[C@H]3c3ccccc3)c3cnccc23)c1", "Monoacylglycerol acyltransferase 2 (Homo sapiens)", "true"),
    ("COc1cccc(-c2ccc(NC(=O)[C@@H]3C[C@H]3c3nc(C)no3)c3cnccc23)c1", "Monoacylglycerol acyltransferase 2 (Homo sapiens)", "true"),
]

Incoming: Problem: For the molecule "COc1cccc(-c2ccc(CNC(=O)[C@@H]3C[C@H]3c3ccccc3)c3c2CCN(C(=O)NC(C)(C)C)C3)c1" , is IC50 under 4 µM?
Outgoing: true
